target: Bovine thymus 1α,25-dihydroxyvitamin D3 receptor (VDR) (Bos taurus, UniProt Q28037); settings: relative value with that of 1α,25-dihydroxyvitamin D3 taken as 100; [3H]-1α,25-dihydroxyvitamin D3 0.1 nM, incubation overnight at 4° C.
Sequence (Q28037 whole entry): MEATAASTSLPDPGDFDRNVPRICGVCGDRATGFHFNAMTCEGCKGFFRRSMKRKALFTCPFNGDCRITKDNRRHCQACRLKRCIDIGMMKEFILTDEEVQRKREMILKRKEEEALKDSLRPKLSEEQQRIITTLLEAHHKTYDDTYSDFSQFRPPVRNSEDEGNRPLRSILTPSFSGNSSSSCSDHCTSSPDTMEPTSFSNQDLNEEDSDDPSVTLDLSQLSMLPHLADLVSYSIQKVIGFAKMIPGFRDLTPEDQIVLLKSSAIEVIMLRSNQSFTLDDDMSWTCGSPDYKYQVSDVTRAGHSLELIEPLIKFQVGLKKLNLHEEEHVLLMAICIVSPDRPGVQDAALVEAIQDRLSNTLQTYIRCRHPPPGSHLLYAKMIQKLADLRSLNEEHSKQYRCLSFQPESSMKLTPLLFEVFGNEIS
Here, each record is paired with measured VDR binding properties data.

- Compound: "C=C1/C(=C\\C=C2/CCC[C@@]3(C)C2CCC3[C@@H](C)CCCC(C)(C)O)C[C@H](O)C[C@@]1(C)O (stereo partly shown)"
  VDR binding properties: 0.004
- Compound: "C=C1/C(=C\\C=C2/CCC[C@]3(C)[C@@H]([C@@H](C)CCCC(C)(C)O)CC[C@@H]23)C[C@H](O)C[C@]1(C)O"
  VDR binding properties: 1
- Compound: "C=C1/C(=C\\C=C2/CCC[C@@]3(C)C2CCC3[C@@H](C)CCCC(C)(C)O)C[C@@H](O)C[C@]1(C)O (stereo partly shown)"
  VDR binding properties: 1
- Compound: "C=C1C(=CC=C2CCCC3(C)C2CCC3C(C)CCCC(C)(C)O)CC(O)CC1(C)O (stereo not shown)"
  VDR binding properties: 0.017
